System: SK-OV-3 ovarian
ASSAY NOTES: NCI-60 one-dose screen, 48 h (100 = growth as untreated, 0 = no growth, -100 = all killed)
MEASUREMENT PARAMETERS: 10 µM unless noted
The panel holds about 83,000 compounds, 20% with a hit somewhere; the sample as a whole holds those more often.
Assign growth to each entry below.
Give bare numbers, in %.

N=C(c1ccccc1)N(Cc1ccccc1)Cc1ccccc1 | 98.1
O=c1[nH]c(=S)[nH]c(O)c1/C=C1\C=Nc2ccccc21 | 104
COc1cc2ncnc(Nc3ccc4c(cnn4C(=O)Nc4ccccc4)c3)c2cc1OC | 110
CC(C)(C)C(=O)CCCCCCCC/C=C/CCCC(O)c1ccco1 (stereo not given) | 116

Now consider the entry below.
Note to self: growth recorded for COc1cc([C@@H]2c3cc4c(cc3[C@H](O)[C@H]3COC[C@@H]23)OCO4)cc(OC)c1OC was 98.3

====

Test system: HS 578T breast
ASSAY NOTES: NCI-60 one-dose screen, 48 h (100 = growth as untreated, 0 = no growth, -100 = all killed)
MEASUREMENT PARAMETERS: 10 µM unless noted
The panel holds about 83,000 compounds, 20% with a hit somewhere; the sample as a whole holds those more often.
Please note: growth exactly at 50% is 0.0. Only values below 50% get 1.0.

Given the entry COc1ccc(OC)c(Cn2cc3c(c2-c2ccccc2)CCc2cnoc2-3)c1 , would its reported growth be below 50%?
0.0

Find out if reported growth for CCOC(=O)c1cc(C(=O)c2ccc(Br)cc2)n2cc(C)cc(C)c12 is less than 50%
0.0

Given CCCNC(=O)Oc1ccc(/C(=C(/CC)Cc2ccccc2)c2ccc(OCCN(CC)CC)cc2)cc1 , is recorded growth strictly lower than 50%?
0.0

Quick check: growth of CC(=O)NCCN under 50%?
0.0

Answer whether the compound C=C(C)[C@@H]1CC[C@]2(COC(=O)c3ccccc3C(=O)O)CC[C@]3(C)[C@H](CC[C@@H]4[C@@]5(C)CCCNC(C)(C)[C@@H]5CC[C@]43C)[C@@H]12 has growth strictly less than 50%
0.0

# check: growth < 50% for COC(=O)/C=C/c1cc(O)c2oc(-c3ccc(O)c(O)c3)c(C(=O)OC)c2c1
1.0

Does the reported growth of OCCN1CCCN(CCCN2c3ccccc3Sc3ccc(C(F)(F)F)cc32)CC1 stay below 50%?
1.0

Quick check: growth of Cc1c(Cc2ccccc2)c(=O)oc2c(C)c(OCc3n[nH]c(=S)o3)ccc12 under 50%?
0.0

====

System: SR leukemia
ASSAY NOTES: NCI-60 one-dose screen, 48 h (100 = growth as untreated, 0 = no growth, -100 = all killed)
MEASUREMENT PARAMETERS: 10 µM unless noted
About 83,000 compounds went through this panel and 20% of them were active in at least one assay; those are over-represented in the sample as a whole.
Hi there, I'd appreciate the recorded growth for every entry that follows.
One number for each entry, in %.

The examples below pair each entry with its known result.
Nc1ccc(N=Nc2ccccc2)c2cc(S(=O)(=O)O)ccc12 | 95.8
CCCCCCCCCCCCCCCCNC(=S)N/N=C/c1ccc(OC)cc1 | 106
CCCCCCNC(=O)Oc1ccc(/C(=C(/C)Cc2ccc(OC)cc2)c2ccc(OCCN3CCCCC3)cc2)cc1 | -0.659
COc1cc(-c2nn(-c3ccc(NC(=O)Nc4ccc(Cl)c(C(F)(F)F)c4)cc3)cc2-c2ccncc2)ccc1Cl | -1.8
COc1cc(-c2c3c(cn2CCN2CCCCC2)-c2oncc2CC3)cc(OC)c1OC | 92.5

Please examine the following record next.
Lab note: CCCCCCCCCCCCCCCCNC(=S)N/N=C/c1ccc(O)cc1O gave growth of 41.2

====

Test system: EKVX NSCLC
ASSAY NOTES: NCI-60 one-dose screen, 48 h (100 = growth as untreated, 0 = no growth, -100 = all killed)
MEASUREMENT PARAMETERS: 10 µM
The panel holds about 83,000 compounds, 20% with a hit somewhere; the sample as a whole holds those more often.
Returns rule met if the recorded growth is greater than or equal to 50%, and rule not met otherwise.

CC(=O)N1CCN(CCNC(=O)n2cc(-c3ccncc3)c(-c3cc(O)cc(Cl)c3)n2)CC1 | rule met
O=C(Nc1ccccc1)Nc1ccc(Nc2ncnc3sc4c(c23)CCCC4)cc1 | rule met

Hello, I need to know if COc1cc(CCNc2cnc3cc(N)cc(N)c3n2)cc(OC)c1 has measured growth not below 50%. Thanks!
rule met

State whether the measured growth reaches 50%, counting equality as reaching it, for COC1(OC)N=C(N)C2(C#N)C3(C(=O)Nc4ccccc43)C12C#N (centres undefined)
rule met

# bool: growth of Nc1nc2c(c3cnccc13)C(c1ccc(Cl)c(Cl)c1)Cc1cnccc1-2 (centres undefined) >= 50%
rule not met

Threshold query (growth >= 50%) on O=C(Nc1ccc(-n2cc(-c3ccncc3)c(-c3ccc(Cl)c(O)c3)n2)cc1)c1cc(C(F)(F)F)cc(C(F)(F)F)c1
rule met

====

Test system: HT29 colon
ASSAY NOTES: NCI-60 one-dose screen, 48 h
MEASUREMENT PARAMETERS: 10 µM unless noted
This is part of a sample that, as a whole, favours compounds with a hit. Of some 83,000 tested, about 20% had one in any assay. The source made the active and inactive calls. Rule for the calls: active = growth percent below 10; inactive = the rest.
Output constraint: value belongs to YES for active, NO for inactive

Worked cases, answers included:
COC(=O)c1ccc2[nH]c(O)c(C(=Nc3ccc(N(C)C(=O)CN4CCN(C)CC4)cc3)c3ccc(CCO)cc3)c2c1 | NO
COc1ccccc1Nc1nnc(COc2ccc(CNC(=O)CCCC/C=C/C(C)C)cc2OC)o1 | NO

Query: recorded result category for Cc1ccc(C(=O)Nc2ccc(CN3CCN(C)CC3)c(C(F)(F)F)c2)cc1C#Cc1cncc2ncccc12 in this test
YES

Please indicate how the test categorized CCOc1nc(-c2ccccc2)cc2c(O)c(C(=O)N/N=C/c3ccccc3O)[nH]c(=O)c12 .
NO

GET /call?item= CCCC(C)c1cc(Cc2cc(Cl)cc(Cl)c2O)c(O)c(Cc2cc(Cl)cc(Cl)c2O)c1 (stereo unspecified) returns the recorded outcome of this test.
NO

Please share the test call associated with CC1(C)C(O)NC(Cl)=C(C#N)C1(C#N)C#N (stereo unspecified) .
NO

Given Clc1ccc(N/N=C(\c2ccccc2)c2ccccn2)nc1 , state the outcome it received in this test.
NO

Dear all, I need the recorded test outcome for COc1ccc(Cn2cc3c(c2-c2ccc(O)cc2)CCc2cnoc2-3)cc1 , thank you.
NO

Test call for this molecule, please: COC(=O)[C@H](Cc1cn(C)cn1)NC(=O)[C@@H](NC(=O)Nc1cc(C(F)(F)F)cc(C(F)(F)F)c1)C(C)(C)C
YES

Which outcome was assigned to Brc1ccc(-c2nc3ccccc3s2)cc1 in this test?
NO

====

Test system: HCT-116 colon
ASSAY NOTES: NCI-60 one-dose screen, 48 h
MEASUREMENT PARAMETERS: 10 µM unless noted
The panel holds about 83,000 compounds, 20% with a hit somewhere; the sample as a whole holds those more often. Active and inactive are the calls of the source. How the source made its calls: active means growth percent below 10; inactive means the rest.
Outcome field: choose from active, inactive

Solved cases below.
COc1ccc2c(N)ncc(C#Cc3cc(C(=O)Nc4ccc(CN5CCN(C)CC5)c(C(F)(F)F)c4)cnc3C)c2c1 | active
O=S(=O)(O)c1ccc2c(c1)Sc1cc(S(=O)(=O)O)ccc1O2 | inactive

Could you check what this test reported for O=C(CBr)OCc1ccc([N+](=O)[O-])o1 ?
inactive

GET /call?item= COc1ccc(/C=C(/C(=O)N2CCCCC2)c2cc(OC)c(OC)c(OC)c2)cc1 returns the recorded outcome of this test.
inactive

Could you please tell me the result logged for CCOC(=O)NNc1[nH]c(-c2ccc(OC)cc2)cc1C#N in this assay?
inactive

====

Tested on: SK-MEL-28 melanoma
ASSAY NOTES: NCI-60 one-dose screen, 48 h
MEASUREMENT PARAMETERS: 10 µM unless noted
About 83,000 compounds went through this panel and 20% of them were active in at least one assay; those are over-represented in the sample as a whole. Activity calls are given as the source filed them. Rule for the calls: active = growth percent below 10; inactive = the rest.
The categories you may choose from are class 1 = active, class 0 = inactive

Known results for compounds:
COc1ccc2c(c1)cn1c3ccc(O)cc3[nH]c(=O)c21 | class 0
COC(=O)c1ccc2[nH]c(O)c(C(=Nc3ccc(N(C)C(=O)CN4CCN(C)CC4)cc3)c3ccc4c(c3)OCO4)c2c1 | class 0
CC(=O)Nc1nc(C)c(C(=O)NNS(=O)(=O)c2ccccc2)s1 | class 0
CCn1cnc(C[C@H](NC(=O)[C@@H](NC(=O)Nc2cc(C(F)(F)F)cc(C(F)(F)F)c2)C(C)C)C(=O)OC)c1 | class 1

Now look at this entry.
So what was the verdict on CCCCCCCCc1ccc(OCCOCC[N+](C)(C)CC)cc1 (tested in a mixture with another compound) in this test?
class 0
